Recorded values, source patent US20080311126A1.

test system: A549 lung cell carcinoma; experiment: Relative colony forming efficiency (Example 17, Table 13); format: cell-based, human; settings: averages of 2-8 determinations
Oligonucleotides are written 5' to 3', each unit as a sugar letter and its base; * is a phosphorothioate linkage, no mark a phosphodiester; rarer units and linkages stand in square brackets, end groups in braces. Plain capitals give the bases only. d = 2'-deoxy (DNA)
ASSAY READOUT: Reduced relative colony forming efficiency, A549 (% inhibition of colony forming ability) (%)
Kindly provide the numeric value in % only, without the unit symbol.

Lookup: Under A549 lung cell carcinoma: Reduced relative colony forming efficiency, A549 (% inhibition of colony forming ability) value of GCTCCCACATATGAAAACTC (antisense dG*dC*dT*dC*dC*dC*dA*dC*dA*dT*dA*dT*dG*dA*dA*dA*dA*dC*dT*dC) [AS-II-2229A-20] ?
Found: 69.72

Lookup: Check ATTAAAATCTGCGTTGAAGC (antisense dA*dT*dT*dA*dA*dA*dA*dT*dC*dT*dG*dC*dG*dT*dT*dG*dA*dA*dG*dC) [AS-II-1700-20] too.
Found: 77.28

Lookup: Check G*CC*TCCG*ACC*CTTC*CC*ATT*G (antisense dG*dCdC*dTdCdCdG*dAdCdC*dCdTdTdC*dCdC*dAdTdT*dG) [AS-II-13-20] too.
Found: 32.3
